- STUDY_SYSTEM: UniProt P48736
- Sequence (P48736 whole entry): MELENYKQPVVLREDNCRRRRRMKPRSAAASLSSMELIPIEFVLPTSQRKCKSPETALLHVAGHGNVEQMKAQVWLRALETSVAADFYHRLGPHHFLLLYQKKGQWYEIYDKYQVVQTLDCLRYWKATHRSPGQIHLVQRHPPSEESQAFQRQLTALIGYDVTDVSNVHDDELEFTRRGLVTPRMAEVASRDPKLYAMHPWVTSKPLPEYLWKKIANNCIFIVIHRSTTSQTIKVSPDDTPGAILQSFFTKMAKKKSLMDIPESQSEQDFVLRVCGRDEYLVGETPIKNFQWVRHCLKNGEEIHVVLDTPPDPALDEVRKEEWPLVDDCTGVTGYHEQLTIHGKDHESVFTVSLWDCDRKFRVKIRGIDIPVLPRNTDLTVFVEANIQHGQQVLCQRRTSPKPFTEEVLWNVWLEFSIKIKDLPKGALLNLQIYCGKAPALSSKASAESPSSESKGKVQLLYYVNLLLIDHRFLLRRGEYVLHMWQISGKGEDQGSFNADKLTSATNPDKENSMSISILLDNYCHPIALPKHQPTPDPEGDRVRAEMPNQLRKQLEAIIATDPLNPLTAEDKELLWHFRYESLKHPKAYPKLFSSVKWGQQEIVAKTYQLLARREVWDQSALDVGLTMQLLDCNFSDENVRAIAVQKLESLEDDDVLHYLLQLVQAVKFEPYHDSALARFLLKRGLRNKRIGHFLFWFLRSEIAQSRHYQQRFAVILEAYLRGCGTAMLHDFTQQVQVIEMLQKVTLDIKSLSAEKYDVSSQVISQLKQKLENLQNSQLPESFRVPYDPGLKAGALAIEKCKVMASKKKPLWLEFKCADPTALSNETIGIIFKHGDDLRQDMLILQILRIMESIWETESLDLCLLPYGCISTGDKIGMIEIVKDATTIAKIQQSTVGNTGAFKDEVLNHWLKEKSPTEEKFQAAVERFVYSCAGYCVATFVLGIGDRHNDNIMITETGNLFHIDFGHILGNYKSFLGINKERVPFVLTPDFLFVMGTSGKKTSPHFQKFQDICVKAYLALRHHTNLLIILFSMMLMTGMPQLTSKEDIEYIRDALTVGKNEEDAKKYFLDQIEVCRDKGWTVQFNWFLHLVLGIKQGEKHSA
- PROCEDURE_SUMMARY: PI 3-Kinase (human) HTRF assay, p110γ
- Type: biochemical
- TEST_SETTINGS: read-out: PI3K γ In Vitro IC50
Reported IC50 by item:

Known IC50 results, listed for orientation:
C[C@H]1CCCN1C(=O)c1cnc2ccc(-c3ccc4oc(N)nc4c3)cn12 [compound 482] = < 1000 nM
COc1ncc(-c2ccc3ncc(C(=O)N4CCOCC4)n3c2)cc1NS(=O)(=O)c1cccc(F)c1 [compound 423] = < 100 nM
C[C@@H]1CN(C2CN(C(=O)c3cnc4ccc(-c5ccc6oc(N)nc6c5)cn34)C2)CCN1 [compound 511] = < 10000 nM
Nc1nc2cc(-c3ccc4ncc(N5CCNC(C(F)F)C5)nc4c3)ccc2o1 (stereo not shown) [compound 413] = < 1000 nM
Nc1nc2cc(-c3ccc4ncc(C(=O)N5CC[C@@H](F)C5)n4c3)ccc2o1 [compound 475] = < 100 nM

input: Tell me the measured IC50 of CC1(C)CN(C2CN(C(=O)c3cnc4ccc(-c5ccc6oc(N)nc6c5)cn34)C2)CCN1 [compound 515] , please.
output: < 1000 nM

input: For C[C@@H]1CCCN1C(=O)c1cnc2ccc(-c3ccc4oc(N)nc4c3)cn12 [compound 481] then?
output: < 1000 nM

input: For O=C(c1cnc2ccc(-c3cnc(Cl)c(NS(=O)(=O)c4ccccc4)c3)cn12)N1CCOCC1 [compound 451] then?
output: < 100 nM

input: For Nc1nc2cc(-c3ccc4ncc(C(=O)N5CCC(N6CC(F)(F)C6)C5)n4c3)ccc2o1 (stereo not shown) [compound 498] then?
output: < 10000 nM

input: For C[C@H]1COCCN1C(=O)c1cnc2ccc(-c3ccc4oc(N)nc4c3)cn12 [compound 483] then?
output: < 10000 nM

input: For C[C@@H]1CN(C2CN(C(=O)c3cnc4ccc(-c5ccc6oc(N)nc6c5)cn34)C2)CCN1C [compound 508] then?
output: < 10000 nM

input: For CO[C@H]1CCN(C(=O)c2cnc3ccc(-c4ccc5oc(N)nc5c4)cn23)C1 [compound 463] then?
output: < 1000 nM

input: For O=C(c1cnc2ccc(-c3cnc(Cl)c(NS(=O)(=O)c4ccccc4F)c3)cn12)N1CCOCC1 [compound 452] then?
output: < 100 nM

---

- STUDY_SYSTEM: p110β/p85α (Homo sapiens (Human))
- Sequence (P42338 whole entry): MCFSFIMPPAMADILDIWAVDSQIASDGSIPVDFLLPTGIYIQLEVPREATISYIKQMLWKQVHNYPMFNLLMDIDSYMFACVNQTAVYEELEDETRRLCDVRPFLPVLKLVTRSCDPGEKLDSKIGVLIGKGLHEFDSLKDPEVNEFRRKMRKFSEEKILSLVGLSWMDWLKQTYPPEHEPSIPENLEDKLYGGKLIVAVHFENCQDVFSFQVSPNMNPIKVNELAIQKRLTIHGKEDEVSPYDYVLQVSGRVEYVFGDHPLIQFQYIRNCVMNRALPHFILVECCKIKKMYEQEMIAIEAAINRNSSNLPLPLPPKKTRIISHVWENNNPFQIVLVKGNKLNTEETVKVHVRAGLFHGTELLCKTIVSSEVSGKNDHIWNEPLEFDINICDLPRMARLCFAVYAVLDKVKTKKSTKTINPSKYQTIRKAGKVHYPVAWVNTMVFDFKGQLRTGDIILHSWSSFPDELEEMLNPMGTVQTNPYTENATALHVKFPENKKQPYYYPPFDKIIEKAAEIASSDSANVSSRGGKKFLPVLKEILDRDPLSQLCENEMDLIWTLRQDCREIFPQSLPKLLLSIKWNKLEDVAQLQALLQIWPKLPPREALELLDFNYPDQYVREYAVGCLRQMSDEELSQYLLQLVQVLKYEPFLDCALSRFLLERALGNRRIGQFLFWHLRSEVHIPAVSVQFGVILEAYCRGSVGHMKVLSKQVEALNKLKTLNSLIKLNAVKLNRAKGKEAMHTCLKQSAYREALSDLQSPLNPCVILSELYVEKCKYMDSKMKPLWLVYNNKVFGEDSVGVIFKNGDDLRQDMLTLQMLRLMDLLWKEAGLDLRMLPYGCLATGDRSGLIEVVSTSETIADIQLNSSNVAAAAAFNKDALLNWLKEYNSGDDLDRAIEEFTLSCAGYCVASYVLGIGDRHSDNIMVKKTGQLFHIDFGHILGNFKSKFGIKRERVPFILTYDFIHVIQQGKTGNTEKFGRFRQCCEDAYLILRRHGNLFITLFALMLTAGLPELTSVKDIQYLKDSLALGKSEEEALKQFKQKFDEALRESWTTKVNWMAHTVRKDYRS
- Sequence (P27986 whole entry partner): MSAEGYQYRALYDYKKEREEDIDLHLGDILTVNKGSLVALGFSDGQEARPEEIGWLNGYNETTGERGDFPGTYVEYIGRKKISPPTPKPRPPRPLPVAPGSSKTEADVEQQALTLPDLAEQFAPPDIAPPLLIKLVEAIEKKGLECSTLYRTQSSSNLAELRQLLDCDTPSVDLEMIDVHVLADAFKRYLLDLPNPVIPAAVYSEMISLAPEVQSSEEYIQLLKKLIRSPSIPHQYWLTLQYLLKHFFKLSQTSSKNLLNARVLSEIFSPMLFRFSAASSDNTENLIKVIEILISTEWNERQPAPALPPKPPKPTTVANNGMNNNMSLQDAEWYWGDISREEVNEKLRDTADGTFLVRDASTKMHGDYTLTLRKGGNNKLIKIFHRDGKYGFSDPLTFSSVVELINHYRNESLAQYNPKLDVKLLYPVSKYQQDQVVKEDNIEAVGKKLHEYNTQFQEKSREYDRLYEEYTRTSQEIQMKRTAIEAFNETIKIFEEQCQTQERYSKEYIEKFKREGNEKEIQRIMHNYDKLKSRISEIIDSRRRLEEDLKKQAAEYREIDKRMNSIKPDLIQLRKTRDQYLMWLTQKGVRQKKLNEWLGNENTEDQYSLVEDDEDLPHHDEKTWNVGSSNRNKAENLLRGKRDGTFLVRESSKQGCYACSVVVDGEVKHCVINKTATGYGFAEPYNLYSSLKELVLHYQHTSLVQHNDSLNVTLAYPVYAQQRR
- PROCEDURE_SUMMARY: PI 3-Kinase (human) HTRF assay, p110β/p85α
- Assay type: biochemical
- TEST_SETTINGS: read-out: PI3K β IC50
Reported IC50 by item:

Known IC50 results, listed for orientation:
CN1CCN(c2cnc3ccc(-c4ccc5sc(N)nc5c4)cc3n2)CC1 = < 100 nM
CS(=O)(=O)N1CCN(c2cnc3ccc(-c4ccc5oc(N)nc5c4)cc3n2)CC1 = < 1000 nM
Nc1nc2cc(-c3ccc4ncc(N5CCNC(=O)C5)nc4c3)ccc2o1 = < 1000 nM
Nc1nc2cc(-c3ccc4ncc(NC5CCOCC5)nc4c3)ccc2o1 = < 10000 nM
Nc1nc2cc(-c3ccn4ncc(-c5ccncc5)c4n3)ccc2o1 = < 100 nM

input: Tell me the measured IC50 of CN1CCN(C(=O)c2cnc3ccc(-c4ccc5nc(N)sc5c4)cn23)CC1 , please.
output: < 10000 nM

input: For Nc1nc2cc(-c3ccc4ncc(C(=O)NC5CC5)n4c3)ccc2o1 then?
output: < 10000 nM

input: For Nc1nc2cc(-c3ccc4ncc(N5CCOCC5)nc4c3)ccc2s1 then?
output: < 1000 nM

input: For CC(=O)N1CCC(N(C)c2ncnc3ccc(-c4ccc5oc(N)nc5c4)cc23)CC1 then?
output: < 1000 nM

Ref: patent US11547697B2
